system_tested: p38 MAPKα isoform (MAPK14) (Homo sapiens, UniProt Q16539)
Sequence (Q16539 whole entry, canonical isoform): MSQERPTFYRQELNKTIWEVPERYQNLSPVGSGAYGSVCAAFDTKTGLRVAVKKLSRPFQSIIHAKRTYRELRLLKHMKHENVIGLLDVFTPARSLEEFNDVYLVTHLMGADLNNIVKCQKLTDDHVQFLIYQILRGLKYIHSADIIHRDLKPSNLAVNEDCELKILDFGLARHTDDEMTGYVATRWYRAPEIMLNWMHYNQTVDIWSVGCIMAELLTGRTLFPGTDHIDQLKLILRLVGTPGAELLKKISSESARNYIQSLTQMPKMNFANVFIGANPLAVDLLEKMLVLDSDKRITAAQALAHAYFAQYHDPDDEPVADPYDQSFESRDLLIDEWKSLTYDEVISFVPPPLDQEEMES
assay_name: p38 MAPKα enzyme inhibition (FRET, Z-LYTE), Method 1
cond: Table 4a1
In this section we review reported IC50 values for a set of compounds.

INSERT INTO measurements (smiles_data, recorded_result) VALUES
  ('COc1ccc(Nc2nccc(Oc3ccc(NC(=O)Nc4cc(C(C)(C)C)nn4-c4ccc(C)cc4)c4ccccc34)n2)cc1C(=O)NCCN1CCOCC1', '24 nM');

Now for the compound whose IC50 we want.
Task item: Which IC50 value is on record for "COc1ccc(C(=O)NCCN(C)C)cc1Nc1nccc(Oc2ccc(NC(=O)Nc3cc(C(C)(C)C)nn3-c3ccc(C)cc3)c3ccccc23)n1" ?
Reply: < 1 nM

###

system_tested: UniProt:P49840
Sequence (P49840 whole entry): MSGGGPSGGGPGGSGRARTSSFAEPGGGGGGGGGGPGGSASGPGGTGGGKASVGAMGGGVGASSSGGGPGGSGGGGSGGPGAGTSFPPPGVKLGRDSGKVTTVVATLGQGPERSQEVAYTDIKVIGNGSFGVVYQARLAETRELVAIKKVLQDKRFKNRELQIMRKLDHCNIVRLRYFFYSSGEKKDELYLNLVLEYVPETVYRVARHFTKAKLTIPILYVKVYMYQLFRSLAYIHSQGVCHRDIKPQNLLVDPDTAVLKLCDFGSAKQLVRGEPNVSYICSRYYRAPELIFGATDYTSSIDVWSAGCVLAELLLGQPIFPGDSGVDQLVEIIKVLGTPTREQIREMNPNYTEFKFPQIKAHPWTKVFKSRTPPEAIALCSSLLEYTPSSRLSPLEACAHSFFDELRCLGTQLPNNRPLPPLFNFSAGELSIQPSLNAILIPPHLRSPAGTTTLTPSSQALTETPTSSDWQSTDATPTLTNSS
assay_name: GSK 3α enzyme inhibition (FRET), Method 1
Format: biochemical
cond: Table 4a1
property_name: IC50 (nM)
Quick reminder: number only, in nM, skip the unit.

Consider the reported IC50 for these compounds:
INSERT INTO assay_data (compound, recorded_result) VALUES
  ('Cc1ccc(-n2nc(C3(C)COC3)cc2NC(=O)Nc2ccc(Oc3ccnc(Nc4cccc(C(=O)NCCN5CCOCC5)c4)n3)c3ccccc23)cc1 [Example 22]', 930),
  ('Cc1ccc(-n2nc(C(C)(C)C)cc2NC(=O)Nc2ccc(Oc3ccnc(Nc4cccc(C(N)=O)c4)n3)c3ccccc23)cc1 [Example 2]', 1260),
  ('COc1ccc(Nc2nccc(Oc3ccc(NC(=O)Nc4cc(C(C)(C)C)nn4-c4ccc(C)cc4)c4ccccc34)n2)cc1C(=O)NCCN1CCOCC1 [Example 13]', 672),
  ('COc1ccc(-n2nc(C(C)C)cc2NC(=O)Nc2ccc(Oc3ccnc(Nc4cc(C(=O)NCCN5CCOCC5)cc(C(F)(F)F)c4)n3)c3ccccc23)cc1 [Example 47]', 2850),
  ('COc1ccc(-n2nc(C(C)C)cc2NC(=O)Nc2ccc(Oc3cc(Nc4cc(OC)cc(C(=O)NCCN5CCOCC5)c4)ncn3)c3ccccc23)cc1 [Example 14]', 355);

// next entry
Task item: Reported IC50, compound COc1ccc(-n2nc(C3(C)COC3)cc2NC(=O)Nc2ccc(Oc3ccnc(Nc4cccc(C(=O)NCCN5CCOCC5)c4)n3)c3ccccc23)cc1 [Example 23] : ____
Reply: 2990

###

System: ICAM-1 expression, BEAS2B cells
assay_name: Poly I:C-induced ICAM-1 expression in BEAS2B cells
Type: cell-based
cond: Homo sapiens, BEAS-2B; read-out: Poly IC induced ICAM1 in BEAS2B, IC50
Method: (f) Poly I:C-Induced ICAM-1 Expression in BEAS2B Cells Poly I:C is used in these studies as a simple, RNA virus mimic. […] Cells are pre-incubated with final concentrations of test compounds for 2 hr and the level of ICAM1 expression on the cell surface is determined by cell-based ELISA. […]
Label true (1) when IC50 is strictly below 4 nM; at or above that, label false (0).

INSERT INTO results (smiles_data, group) VALUES
  ('COc1ccc(-n2nc(C(C)C)cc2NC(=O)Nc2ccc(Oc3ccnc(Nc4cc(Cl)cc(C(=O)NCCN5CCOCC5)c4)n3)c3ccccc23)cc1', 'false (0)');

Task item: Consider "COCCNC(=O)c1cc(Nc2nccc(Oc3ccc(NC(=O)Nc4cc(C(C)C)nn4-c4ccc(OC)cc4)c4ccccc34)n2)cc(OC)c1" . Does its IC50 lie strictly below 4 nM?
Reply: true (1)

Task item: Please indicate whether the reported IC50 of "COc1cc(C(=O)NCCO)ccc1Nc1nccc(Oc2ccc(NC(=O)Nc3cc(C(C)C)nn3-c3ccc(C)cc3)c3ccccc23)n1" is strictly below 4 nM.
Reply: false (0)

Task item: Item "COc1cc(Nc2nccc(Oc3ccc(NC(=O)Nc4cc(C(C)(C)C)nn4-c4ccc(C)cc4)c4ccccc34)n2)cc(C(=O)NCCN(C)C)c1" : IC50 beneath 4 nM, strictly?
Reply: true (1)

Task item: Decide: IC50 of "COc1cc(C(=O)NCCN2CCOCC2)ccc1Nc1nccc(Oc2ccc(NC(=O)Nc3cc(C(C)(C)C)nn3-c3ccc(C)cc3)c3ccccc23)n1" strictly below 4 nM?
Reply: false (0)
